target: Luciferin 4-monooxygenase (Photinus pyralis) (UniProt P08659); assay: inhibition of purified Photinus pyralis luciferase – biochemical, luminescence, purified enzyme, 2006 set, primary screen (AID 1141); details: purified firefly luciferase, SteadyGlo luminescence, 30 min; higher = more signal, called active from +8 up or from −8 down unless noted;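 also: cell-free assay with purified firefly luciferase at 100 ng per well in PBS; test concentration not given here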
Sequence (P08659 whole entry, looked up): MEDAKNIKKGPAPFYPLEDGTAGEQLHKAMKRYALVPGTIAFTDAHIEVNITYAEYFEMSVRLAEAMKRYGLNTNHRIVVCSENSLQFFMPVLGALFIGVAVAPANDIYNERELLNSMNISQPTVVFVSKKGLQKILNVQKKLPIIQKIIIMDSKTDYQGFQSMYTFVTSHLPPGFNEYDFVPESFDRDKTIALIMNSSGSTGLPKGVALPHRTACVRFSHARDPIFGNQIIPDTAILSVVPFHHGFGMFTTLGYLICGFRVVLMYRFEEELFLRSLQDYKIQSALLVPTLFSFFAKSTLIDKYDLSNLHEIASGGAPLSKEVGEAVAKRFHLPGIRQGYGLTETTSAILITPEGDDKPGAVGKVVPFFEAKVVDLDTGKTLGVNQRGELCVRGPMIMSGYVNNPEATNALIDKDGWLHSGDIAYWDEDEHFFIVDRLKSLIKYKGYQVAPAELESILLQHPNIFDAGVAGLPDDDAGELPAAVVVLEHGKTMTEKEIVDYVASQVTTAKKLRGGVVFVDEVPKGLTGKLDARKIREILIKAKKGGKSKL
Quick rule: z-score of at least -0.6 means Fulfilled, below that means Not fulfilled.

C=C(CC1(CNP(=O)(c2ccccc2)c2ccccc2)CC1)c1ccccc1 = Fulfilled
CCCc1cc2c(n1Cc1ccc(C)cc1)C(C)C1CN(C(=O)c3ccccc3)C(C)(C(=O)OC)C21 (stereo not drawn) = Not fulfilled
COC(=O)C1(C)C=C2C(=C(C)C(=O)C2C)CN1 (stereo not drawn) = Fulfilled

Request: Check this compound for z-score at or above -0.6: "C[C@@H]1OC=C2[C@@H](O)[C@H]3O[C@H]3C(=O)[C@]23[C@H]1[C@H]1C2=C([C@@H](O)[C@H]4O[C@H]4C2=O)[C@@H]3O[C@@H]1C"
Result: Fulfilled

Request: I'd appreciate it if you could say whether OCc1ccc(C2=CC(C3CC3)N(Cc3sc4ccccc4c3Cl)CC2)cc1 (stereo not drawn) has z-score at least equal to -0.6.
Result: Not fulfilled

Request: Threshold query (z-score >= -0.6) on "CCCC=C(CCC)[C@@H](NP(=O)(c1ccccc1)c1ccccc1)c1ccccc1"
Result: Fulfilled

Request: Hi team, for "C[C@H]1O[C@H]2C3=C(C(=O)[C@@H]4O[C@@H]4[C@@H]3O)[C@@H]1[C@@H]1[C@@H](C)OC=C3[C@@H](O)[C@H]4O[C@H]4C(=O)[C@]312" , is the recorded z-score at or above -0.6?
Result: Not fulfilled

Request: Exam item: decide whether the reported z-score for "COC(=O)[C@H]1[C@H](c2ccccc2)C(=O)[C@]2(O)c3ccccc3O[C@@]12c1ccccc1" is at least -0.6.
Result: Not fulfilled
